assay: NCI Yeast Anticancer Drug Screen. Data for the bub3 strain (AID 167); settings: S. cerevisiae bub3 mutant strain, at 50.0 µM, stronger effect = higher value
The panel holds about 79,000 compounds, 15% with a hit somewhere; the sample as a whole holds those more often.
Use 70% as the dividing line for growth inhibition, with the line itself on the YES side and lower values as NO.

// below: answered molecules
CN(C)CCSCCN1c2ccccc2Sc2ccc(Cl)cc21: YES
O=S1(=O)c2ccccc2C(O)(c2ccccc2)c2cc3ccccc3n21 (stereo unspecified): YES
S=c1nc(C(c2ccccc2)c2ccccc2)[nH][nH]1: NO
Cc1cc(N2C(=O)CSC2=S)c([N+](=O)[O-])cc1C: YES
CC(=O)/C(=C\c1c(Cl)cccc1Cl)C(=O)CCN(C)C: NO

Note: attention shifts to another entry.
Problem: Given the entry `CCN(CC)C(=S)N=Nc1c(O)[nH]c2ccccc12` , answer whether its growth inhibition meets or surpasses 70%.
Solution: YES

---

Assay: NCI Yeast Anticancer Drug Screen. Data for the mlh1 rad18 strain (AID 175)
Conditions: S. cerevisiae mlh1 rad18 strain growth inhibition; at 50.0 µM; stronger effect = higher value
Method: Growth inhibition of yeast strains with defined genetic alterations is measured as a screen for potential anti-cancer activity. Selected strains with alterations in DNA damage repair or cell cycle control were exposed to compounds and growth inhibition was measured relative to vehicle treated controls. The strain used in this assay is mlh1 rad18
Compounds without any hit were thinned out: in the full panel of roughly 79,000, 15% have a hit. Activity calls are given as the source filed them. No stated cut-off is given here; in the data, active means growth inhibition above about 70%; inactive means the rest.
QUANTITY NAME: growth inhibition

# example entries with known answers
C/C(O)=c1\cc(C#N)c(=C(C#N)C#N)nc1C: 46.4% (inactive)
O=C(CCl)N1CCN(C(c2ccccc2)c2ccccc2)CC1: 97.5% (active)
CC(=O)N(C)NC(=O)c1ccccc1: -4.7% (inactive)
CC(=O)NCC1OC2COC(c3ccccc3)OC2C(NC(=O)c2ccccc2)C1OC(=O)c1ccccc1 (centres undefined): 91.3% (active)
COC1CC(OC(=O)c2ccccc2)C2OC(c3ccccc3)OCC2O1 (centres undefined): 6.15% (inactive)

For every listed record, write down its growth inhibition.
1. CC(/C=C/c1ccco1)=N\NC(=S)NCC(C)C
2. O=C1OC(c2ccccc2)(c2ccc(-c3ccc(O)cc3)cc2)c2ccccc21 (centres undefined)
3. Cc1cc(N)c2cc(NC(=O)Nc3ccc4nc(C)cc(N)c4c3)ccc2n1
4. CC(C)/C=C1\CCOC1=O
5. Cc1c2ccccc2c(CCl)c2ccc3ccccc3c12

Solution:
["75.5% (active)", "96.7% (active)", "98.5% (active)", "21.7% (inactive)", "96.8% (active)"]

---

assay: NCI Yeast Anticancer Drug Screen. Data for the mlh1 rad18 strain (AID 175); details: S. cerevisiae mlh1 rad18 strain growth inhibition; at 50.0 µM
Compounds without any hit were thinned out: in the full panel of roughly 79,000, 15% have a hit. The source made the active and inactive calls. Rule as the data show it: active = growth inhibition above about 70%; inactive = the rest.
# output must be one of active, inactive

COc1cc(C2C(C(=O)Nc3ccc(Cl)c(Cl)c3)=C(C)NC(C)=C2C(=O)Nc2ccc(Cl)c(Cl)c2)ccc1O: active
C/C(=N\NC(=S)Nc1ccc(Cl)cc1)c1nc2ncccc2[nH]1: active
CN1CCC(/C=C/c2cccc3ccccc23)CN1 (configuration not stated) (tested in a mixture with another compound): active
CSC(=S)N/N=C(\C)c1ccc[nH]1: active
Oc1cccc(/C=C/c2ccncc2)c1: inactive
CCCNC(=S)N/N=C(/C)c1nccc2ccccc12: inactive
OC(CC(O)(C(F)(F)Cl)C(F)(F)Cl)c1ccccc1 (configuration not stated): active
COc1ccc(C2=C/C(=C3\C(=O)Oc4ccccc4C3=O)SS2)cc1: inactive

Problem: Outcome logged for `COC(=O)c1ccc(CCC2=CC(=O)C=CC2=O)cc1` in this assay:
Solution: inactive

Problem: Outcome logged for O=C1CCCC1CN1CCOCC1 (configuration not stated) in this assay:
Solution: active

Problem: Outcome logged for `c1ccc(Nc2nnc3nc(-c4ccccc4)c(-c4ccccc4)nn23)cc1` in this assay:
Solution: active

Problem: Outcome logged for `NC(=S)N/N=C/c1ccc([N+](=O)[O-])o1` in this assay:
Solution: active

Problem: Outcome logged for `Oc1cccc(-c2nc(-c3ccccc3)c(-c3ccccc3)[nH]2)c1` in this assay:
Solution: active

Problem: Outcome logged for `CN1C(=O)CCCCCCCCCCSc2ccccc21` in this assay:
Solution: active

Problem: Outcome logged for CCOC(=O)C(C#N)c1cc(O)c(C(C#N)C(=O)OCC)cc1O (configuration not stated) in this assay:
Solution: inactive

Problem: Outcome logged for `CC1=C(C(=O)Nc2cccc(Cl)c2)C(c2ccccc2F)C(C(=O)Nc2cccc(Cl)c2)=C(C)N1` in this assay:
Solution: active

Problem: Outcome logged for `COc1ccc(CN2CCCN(Cc3ccc(OC)cc3OC)C2c2cc(Cl)cc(Cl)c2O)c(OC)c1` in this assay:
Solution: inactive
